Data credit: paper PMC7221699

In this section, each of the compounds is paired with its reported Emax.
Tested on: human gastric adenocarcinoma (AGS) cells
assayDetails: Sulforhodamine B (SRB) cell cytotoxicity assay, AGS cells
Assay type: cell-based
assayConditions: AGS cells; maximal drug effect on viability rate, 1 = no effect, 0 = fully cytotoxic
API doc: respond with a numeric literal and nothing else, no unit.

Known results for compounds:
CC1(C)[C@H]2CC=C(C(=O)N(CC(=O)NC3CCCCC3)Cc3cn(-c4cccc(Cl)c4)nn3)[C@@H]1C2; 0.2
COc1ccc(-n2cc(CN(CC(=O)NC3CCCCC3)C(=O)C3=CC[C@H]4C[C@@H]3C4(C)C)nn2)cc1; 0.1
CC1(C)[C@H]2CC=C(Cn3cc(CN(CC(=O)NC4CCCCC4)C(=O)C4=CC[C@H]5C[C@@H]4C5(C)C)nn3)[C@@H]1C2; 0.1

Lookup: I am curious: what Emax value has been reported for "Cc1ccc(-n2cc(CN(CC(=O)NC3CCCCC3)C(=O)C3=CC[C@H]4C[C@@H]3C4(C)C)nn2)cc1" ?
Found: 0.1

Lookup: I am curious: what Emax value has been reported for CC(=O)N(Cc1ccccc1)C(C(=O)NC1CCCCC1)C1=CC[C@H]2C[C@@H]1C2(C)C (some centres unmarked) ?
Found: 0.1
